We begin with a simple list: items and their reported composite z-score.
# TARGET OR TEST SYSTEM: Torsin-1A (Homo sapiens) (UniProt O14656)
# Sequence (O14656 whole entry, looked up): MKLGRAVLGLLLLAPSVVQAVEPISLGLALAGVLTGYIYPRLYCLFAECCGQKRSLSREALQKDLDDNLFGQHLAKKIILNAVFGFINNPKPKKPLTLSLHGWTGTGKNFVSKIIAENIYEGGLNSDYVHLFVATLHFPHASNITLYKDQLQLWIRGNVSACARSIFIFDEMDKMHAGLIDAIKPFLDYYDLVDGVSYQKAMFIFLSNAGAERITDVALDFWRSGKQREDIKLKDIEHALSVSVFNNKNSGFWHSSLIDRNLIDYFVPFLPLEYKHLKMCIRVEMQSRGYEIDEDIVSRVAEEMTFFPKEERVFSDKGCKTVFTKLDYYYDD
# METHOD DESCRIPTION: small-molecule binders of mutant TOR1A in lysate, primary screen, cell lysate, small-molecule microarray, COS7 lysate, 635/667 nm fluorescence (AID 1150);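 also: score pools 667 nm emission and signal to noise measuring lysate protein binding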
# RUN PARAMETERS: COS7 hTOR1A mutant lysate, 635 nm fluorescence, higher = more signal
Respond using a number only.

Sample records with composite z-score:
{"MOLECULE": "CN(C)CCCNC(=O)[C@@H]1c2ccccc2C(=O)N(Cc2ccccc2Cl)[C@H]1c1ccc(CO)cc1", "READOUT": "composite z-score", "RECORDED NUMBER": 0.798}
{"MOLECULE": "COc1ccc([Si](C)(C)[C@@H]2[C@@H](CC(=O)N(CCO)Cc3ccccc3)O[C@]3(C(=O)N(Cc4cccc(N5CCOC5=O)c4)c4ccccc43)[C@H]2C)cc1", "READOUT": "composite z-score", "RECORDED NUMBER": 0.347}

Then this molecule:
Exercise: If you can, please state the reported composite z-score value of C=CCC(OC(C)=O)[C@@H]1[C@@H](N(Cc2ccc(-c3ccccc3)cc2)C(=O)Cc2ccc(F)cc2)c2cc(OCCCO)ccc2N1C(=O)Cc1ccc(OC)cc1 (stereo partly drawn) .
Solution: -0.751

====

# METHOD DESCRIPTION: compound binding in COS7 lysate, probe aLAP1, primary screen, cell lysate, small-molecule microarray (AID 1124);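 also: lysate comes from COS7 cells expressing LAP1 and is applied at 0.3 µg/mL; score merges spot fluorescence near 667 nm with signal-to-noise over triplicate slides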
# RUN PARAMETERS: probe aLAP1, fluorescence, higher = more signal
READOUT: composite z-score
Respond using a number only.

{"COMPOUND": "CCCCC=C[C@@H](NC(=O)c1ccc(-c2ccccc2)cc1)c1ccccc1", "composite z-score": 1.01}
{"COMPOUND": "CC(c1ccccc1)C(O)C1C=CC2C(=O)N(c3ccccc3)C(=O)C2N1Nc1ccc([N+](=O)[O-])cc1 (configuration not stated)", "composite z-score": 0.0001}
{"COMPOUND": "C=CCOC(=O)[C@H]1[C@@H]2C(=O)O[C@@H](c3ccccc3)[C@@H](c3ccccc3)N2[C@@H](c2ccc(OCCOC(=O)[C@@H]3C[C@@H]4C(=O)N5CCC[C@H]5C(=O)N4[C@@H]3c3ccc(O)cc3)cc2)[C@]12C(=O)Nc1ccc(I)cc12", "composite z-score": 0.163}
{"COMPOUND": "O=C1O[C@H](c2ccccc2)[C@H](c2ccccc2)N2[C@H]1[C@@H](C(=O)Nc1nc3ccccc3s1)[C@]1(C(=O)Nc3ccc(C#CC4(O)CCCCCC4)cc31)[C@H]2c1ccccc1OCCO", "composite z-score": 0.398}
{"COMPOUND": "COCCOC(=O)N1C(=O)[C@@]2(c3cc(C#CC4(O)CCCCCC4)ccc31)[C@H](c1ccc(O)cc1)N1[C@H](c3ccccc3)[C@H](c3ccccc3)OC(=O)[C@H]1[C@@H]2C(=O)NC[C@H](O)c1ccccc1", "composite z-score": 1.46}
{"COMPOUND": "COc1cc2c(cc1O)C(C)N(Cc1ccc([N+](=O)[O-])o1)CC2 (configuration not stated)", "composite z-score": 1.57}

Exercise: If you can, please state the reported composite z-score value of CCCC[C@@H]1C[C@H]1[C@@H](NC(=O)Cc1ccccc1)c1ccc(-c2ccccc2)cc1 .
Solution: -0.273

Exercise: If you can, please state the reported composite z-score value of CCCCCCCCCCC(O)C1C=CC2C(=O)N(C)C(=O)C2N1NC(=O)OC(C)(C)C (configuration not stated) .
Solution: -0.45

Exercise: If you can, please state the reported composite z-score value of C=CCC(OC(C)=O)[C@@H]1[C@@H](N(Cc2cccc3ccccc23)C(=O)Cc2ccc(OC)cc2)c2cc(OCCCO)ccc2N1C(=O)c1ccc2ccccc2n1 (some centres not stated) .
Solution: 0.449

Exercise: If you can, please state the reported composite z-score value of COCCOC(=O)N1C(=O)[C@@]2(c3cc(C#Cc4ccc(OC)cc4)ccc31)[C@H](C(=O)Nc1nc3ccccc3s1)[C@H]1C(=O)O[C@H](c3ccccc3)[C@H](c3ccccc3)N1[C@@H]2c1ccc(O)cc1 .
Solution: 0.171

Exercise: If you can, please state the reported composite z-score value of COC(=O)[C@@]1(Cc2ccc(OC)cc2)[C@H]2c3cc(C(=O)N(C)C)n(C[C@H](O)CO)c3C[C@H]2CN1C(=O)c1ccccc1 .
Solution: 0.828

Exercise: If you can, please state the reported composite z-score value of CCCC[C@@H]1C[C@H]1[C@@H](NC(=O)c1ccccc1)c1ccc(C(F)(F)F)cc1 .
Solution: -0.134

====

# TARGET OR TEST SYSTEM: Epidermal growth factor receptor (Homo sapiens)
# METHOD DESCRIPTION: EGFR binders on small-molecule microarrays, primary screen, biochemical, small-molecule microarray, 635 nm fluorescence (AID 1104);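 also: score merges 667 nm emission intensity with spot signal to noise over triplicate slides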
# RUN PARAMETERS: EGFR binding, higher = more signal
READOUT: composite z-score

Sample records with composite z-score:
{"COMPOUND": "Cc1cc(C)c(C(O)C2C=CC3C(=O)N(c4ccccc4)C(=O)C3N2Nc2ccc(C(C)C)cc2)c(C)c1 (stereo not drawn)", "RESULT": -0.0206}
{"COMPOUND": "CC(CO)N1C(=O)[C@@H]2[C@H]3C(=O)OCC=C[C@H]3OC23C=CCN(C(C)(C)C)C(=O)[C@@H]13 (stereo partly drawn)", "RESULT": -1.14}
{"COMPOUND": "CC(C)N1C(=O)c2ccccc2[C@@H](C(=O)NC2CC2)[C@@H]1c1ccc(CO)cc1", "RESULT": -0.0202}

Exercise: If you can, please state the reported composite z-score value of CCOC(=O)c1ccc(NC(=O)O[C@H]2[C@H](OC(=O)Nc3ccc4c(c3)OCO4)[C@H](OC(=O)Nc3ccc4c(c3)OCO4)[C@@H](OC)O[C@@H]2CO)cc1 .
Solution: 0.517

Exercise: If you can, please state the reported composite z-score value of CC(C)Cc1ccc(CN2CC[C@@H](NC(=O)Nc3ccccc3)C2)cc1 .
Solution: -0.301

Exercise: If you can, please state the reported composite z-score value of C=CCNC(=O)[C@H]1[C@@H]2C(=O)O[C@@H](c3ccccc3)[C@@H](c3ccccc3)N2[C@@H](c2ccc(O)cc2)[C@]12C(=O)N(C(=O)OCCOC)c1ccccc12 .
Solution: 1.11

Exercise: If you can, please state the reported composite z-score value of O=C(NCC(F)(F)F)[C@@H]1c2ccccc2C(=O)N(Cc2cc(F)cc(C(F)(F)F)c2)[C@H]1c1ccc(CO)cc1 .
Solution: -1.12

Exercise: If you can, please state the reported composite z-score value of CCCCCCCCCCC(O)C1C=CC2C(=O)N(C)C(=O)C2N1NC(=O)OC(C)(C)C (stereo not drawn) .
Solution: -0.0167

====

# METHOD DESCRIPTION: modulators of S6 phosphorylation in cells, primary screen, cell-based, A549, cytoblot, luminescence, serum-stimulated (AID 1158);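 also: serum-stimulated A549 lung adenocarcinoma cells; signal is phosphorylated S6 detected by cytoblot immunostaining with HRP secondary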
# RUN PARAMETERS: A549 phospho-S6 cytoblot, 5 h, higher = more signal
Classification field: enter 1.0 for z-score values not below 0.5, 0.0 for values below it.

Reference set (5 entries):
{"COMPOUND": "COC(=O)[C@@]1(Cc2ccccc2N=[N+]=[N-])N=C(c2ccc(OCCCO)cc2)O[C@H]1c1ccccc1N=[N+]=[N-]", "ASSIGNED CLASS": 0.0}
{"COMPOUND": "COc1ccc([Si](C)(C)[C@@H]2[C@@H](CCO)O[C@]3(C(=O)N(Cc4ccc(N5CCCCC5=O)cc4)c4ccccc43)[C@H]2C)cc1", "ASSIGNED CLASS": 1.0}
{"COMPOUND": "COCCOC(=O)N1C(=O)[C@@]2(c3cc(C#CCCO)ccc31)[C@H](c1ccccc1OCCO)N1[C@H](c3ccccc3)[C@H](c3ccccc3)OC(=O)[C@H]1[C@@H]2C(=O)Nc1nc2ccccc2s1", "ASSIGNED CLASS": 0.0}
{"COMPOUND": "CC1=C[C@@]2(CO)C(=O)[C@]3(CO3)[C@@H]1[C@H]1[C@]2(C)C=C(CO)C(=O)[C@]12CO2", "ASSIGNED CLASS": 0.0}
{"COMPOUND": "NC(=O)NCC#Cc1ccc2c(c1)[C@]1(C(=O)N2)[C@H](C(=O)O)[C@H]2C(=O)O[C@H](c3ccccc3)[C@H](c3ccccc3)N2[C@@H]1c1ccc(OCCO)cc1", "ASSIGNED CLASS": 0.0}

Exercise: Quick check: does CN(C)C(=O)C1N=C(c2ccc(OCCCO)cc2)N(c2ccccc2)O1 (stereo not given) have z-score greater than or equal to 0.5?
Solution: 0.0

Exercise: Quick check: does O=C1OCCC/C=C\[C@H]2OC34C=CCN(CCN5CCOCC5)C(=O)[C@H]3N(CCCCCCO)C(=O)[C@@H]4C12 (stereo not given in full) have z-score greater than or equal to 0.5?
Solution: 1.0

Exercise: Quick check: does COCCOC(=O)N1C(=O)[C@@]2(c3cc(C#CC4=CCCCC4)ccc31)[C@H](C(=O)N1CCCCCCC1)[C@H]1C(=O)O[C@H](c3ccccc3)[C@H](c3ccccc3)N1[C@@H]2c1ccc(O)cc1 have z-score greater than or equal to 0.5?
Solution: 1.0

Exercise: Quick check: does O=C1C2C=CC(C(O)c3ccccc3)N(Nc3ccccc3F)C2C(=O)N1c1ccccc1 (stereo not given) have z-score greater than or equal to 0.5?
Solution: 0.0

Exercise: Quick check: does [N-]=[N+]=NCc1ccccc1[C@H]1OC(c2ccc(OCCCO)cc2)=N[C@@]1(CCS(=O)(=O)c1ccccc1)C(=O)N1CCCCC1 have z-score greater than or equal to 0.5?
Solution: 1.0
